Each recorded value in this set is attributed to patent US20240391948A1.

System: J774A.1 (Mouse BALB/c monocyte macrophage cell line) cells
Experiment: LPS-induced TNF-α secretion inhibition in J774A.1 cells
Type: cell-based
Conditions: J774.A1, 1 μM compound, graded compared to taurodeoxycholic acid (positive control), read-out: TNF-α production inhibition grade
ASSAY ENDPOINT: inhibition at 1 µM

COMPOUND | TARGET DESC | inhibition at 1 µM
C[C@H](CCC(=O)N(CCS(=O)(=O)O)C1CCOCC1)[C@H]1CC[C@H]2[C@@H]3CC[C@@H]4C[C@H](O)CC[C@]4(C)[C@H]3CC[C@]12C [NC10059] | J774A.1 (Mouse BALB/c monocyte macrophage cell line) cells | < 20%
C[C@H](CCC(=O)N1CCC(S(=O)(=O)O)CC1)[C@H]1CC[C@H]2[C@@H]3[C@H](O)C[C@@H]4C[C@H](O)CC[C@]4(C)[C@H]3C[C@H](O)[C@]12C [NC20011] | J774A.1 (Mouse BALB/c monocyte macrophage cell line) cells | < 20%

Shift focus to the following entry.
Looking up CC[C@H]1[C@@H](O)[C@@H]2[C@H](CC[C@]3(C)[C@@H]([C@H](C)CCC(=O)N(CCO)CCS(=O)(=O)O)CC[C@@H]23)[C@@]2(C)CC[C@@H](O)C[C@@H]12 [NC40006] , I found its inhibition at 1 µM recorded as 20 to 50%
